Molecular target: EP300 (P300(1048-1664)) (Homo sapiens, UniProt Q09472)
Construct: P300(1048-1664)
Sequence (Q09472 1048-1664): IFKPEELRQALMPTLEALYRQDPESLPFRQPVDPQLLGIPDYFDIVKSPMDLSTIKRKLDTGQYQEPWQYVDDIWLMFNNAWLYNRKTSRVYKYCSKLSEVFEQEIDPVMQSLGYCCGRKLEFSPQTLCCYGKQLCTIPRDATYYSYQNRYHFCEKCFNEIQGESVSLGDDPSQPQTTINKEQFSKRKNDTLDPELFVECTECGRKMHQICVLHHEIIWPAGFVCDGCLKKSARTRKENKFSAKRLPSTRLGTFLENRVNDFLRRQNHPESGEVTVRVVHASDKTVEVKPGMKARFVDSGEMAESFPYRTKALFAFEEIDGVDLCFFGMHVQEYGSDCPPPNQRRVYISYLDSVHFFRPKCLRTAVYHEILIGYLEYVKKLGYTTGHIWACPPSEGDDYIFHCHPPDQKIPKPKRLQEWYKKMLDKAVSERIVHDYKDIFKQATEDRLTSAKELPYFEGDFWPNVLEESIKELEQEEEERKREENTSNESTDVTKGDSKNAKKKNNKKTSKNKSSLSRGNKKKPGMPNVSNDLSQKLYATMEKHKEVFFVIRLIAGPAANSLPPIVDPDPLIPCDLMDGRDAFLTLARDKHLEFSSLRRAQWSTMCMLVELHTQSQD
Assay: Biochemical assay for EP300, SAMDI
Settings: EP300, SAMDI; read-out: EP300 Biochemistry IC50
Some compounds, each annotated with its measured IC50.
// units = nM; emit number, no label

Look over these answered cases.
CCn1ncc(CN(C)C(=O)c2nc(-c3ccc(OCCCNC)c(C(C)C)c3)nc3ccc(Cl)cc23)c1C [Compound 440]    937
CCn1ncc(CN(C)C(=O)c2nc(-c3cc(NCCNC)cc(OC)c3)nc3ccc(Cl)cc23)c1C [Compound 5]    11
CCn1ncc(CN(C)C(=O)c2nc(-c3ccc(OCCCNC)c(C(C)(C)C)c3)nc3ccc(Cl)cc23)c1C [Compound 462]    15800

Continue with the next compound.
Returns the measured IC50 for the input compound. Input: CCn1ncc(CN(C)C(=O)c2cc(-c3ccc(NCCOC)c(C)n3)nc3ccc(Cl)cc23)c1C [Compound 568]
31.1

====

Molecular target: EP300 (P300(1048-1664)) (Homo sapiens, UniProt Q09472)
Construct: P300(1048-1664)
Experiment: Biochemical assay for EP300, SAMDI
Settings: EP300, SAMDI; read-out: EP300 Biochemistry IC50
endpointName: IC50
Include the unit after the number when you answer.

CCn1ncc(CN(C)C(=O)c2cc(-c3ccc(NC4CNCC4(F)F)c(C)n3)nc3ccc(Cl)cc23)c1C (stereo not shown)    88.6 nM
CCc1ncc(CN(C)C(=O)c2cc(-c3ccc(NC4CN(C)C4)c(C)n3)nc3ccc(Cl)cc23)n1C    6.5 nM
CCn1ncc(CN(C)C(=O)c2cc(-c3ccc(OCC(=O)NC)c(OC)c3)nc3ccc(Cl)cc23)c1C    4300 nM

Returns the measured IC50 for the input compound. Input: CCn1ncc(CN(C)C(=O)c2nc(-c3cc(Cl)cc(C(=O)NC)c3)nc3ccc(Cl)cc23)c1C
50000 nM

====

Some compounds, each annotated with its measured IC50.
Biological target: EP300 (P300(1048-1664)) (Homo sapiens, UniProt Q09472)
Construct: P300(1048-1664)
Assay: Biochemical assay for EP300, SAMDI
Details: EP300, SAMDI; read-out: EP300 Biochemistry IC50
// units = nM; emit number, no label

CCn1ncc(CN(C)C(=O)c2nc(-c3ccnc(NC(C)=O)c3)nc3ccc(Cl)cc23)c1C    7100
CC1CCCc2c(CN(C)C(=O)c3cc(-c4cccc(Cl)c4)nc4ccc(Cl)cc34)cnn21 (stereo not shown)    590
CCn1ncc(CN(C)C(=O)c2cc(-c3ccc(NC4CN(C)C4)c(C)n3)nc3ccc(Cl)cc23)c1C    6.5

Form field - read-out: IC50; system: EP300 (P300(1048-1664)) (Homo sapiens, UniProt Q09472); submitted item: CCn1ncc(CN(C)C(=O)c2nc(-c3cc4c(N)nn(CCNC)c4cc3C)nc3ccc(Cl)cc23)c1C
1360

Form field - read-out: IC50; system: EP300 (P300(1048-1664)) (Homo sapiens, UniProt Q09472); submitted item: CCn1ncc(CN(C)C(=O)c2nc(-c3cc(Cl)cc(NCCCN(C)C(=O)OC(C)(C)C)c3)nc3ccc(Cl)cc23)c1C
110

Form field - read-out: IC50; system: EP300 (P300(1048-1664)) (Homo sapiens, UniProt Q09472); submitted item: CCn1ncc(CN(C)C(=O)c2cc(-c3cc(-c4ncc[nH]4)n(C)n3)nc3ccc(Cl)cc23)c1C
2.4

Form field - read-out: IC50; system: EP300 (P300(1048-1664)) (Homo sapiens, UniProt Q09472); submitted item: CCn1ncc(CN(C)C(=O)c2nc(-c3cc(C)nc(NCCOC)c3)nc3ccc(Cl)cc23)c1C
493
